experiment: folding enthalpy; higher = less favourable; fluorescence melt of hairpins on a sequencing array, two-state fit; conditions: sodium 0.088 M
So basically: folding enthalpy at -30 kcal/mol or higher? That is Criterion met. Lower than -30 kcal/mol? That is Criterion not met.

Chain: GCCACCCGAAAGGGAGGC (((.(((....))).)))
Assigned Category: Criterion not met
//
Chain: GGTGTCGAAAGACTTACC ((((((....)))..)))
Assigned Category: Criterion met
//
Chain: GATCGAGGACTCGATC ((((((....))))))
Assigned Category: Criterion not met
//
Chain: CGCCCGGAAACGGTGGCG ((((((....)))..)))
Assigned Category: Criterion met
//
Chain: GCAGAGGGAAACCTCCGC ((.((((....)))).))
Assigned Category: Criterion met
//
Chain: GGTGGGCGAAAGCCGACC (((.(((....))).)))
Assigned Category: Criterion met
//
Chain: GATCAGCGAAAGCTAATC (((.(((....))).)))
Assigned Category: Criterion met
//
Chain: GATCGTCGTTACGATC ((((((....))))))
Assigned Category: Criterion not met
//
Chain: GCTCTGCGAAAGCAACGC ((..(((....)))..))
Assigned Category: Criterion met
//
Chain: GCGTGCACACGC ((((....))))
Assigned Category: Criterion met
//
Chain: GATCCTAGTCAGGATC ((((((....))))))
Assigned Category: Criterion not met
//
Chain: GCGCAGCGAAAGCAACGC (((..((....))..)))
Assigned Category: Criterion met
//
Chain: CGACCGGAAACGGATCG ((((((....))).)))
Assigned Category: Criterion not met
//
Chain: GATCGCCTACGCGATC ((((((....))))))
Assigned Category: Criterion not met
//
Chain: GATCTGGAATCAGATC ((((((....))))))
Assigned Category: Criterion not met
//
Chain: TCACAGAAATGTGA (((((....)))))
Assigned Category: Criterion met
//
Chain: GTGTCAGGAAACTGGCAC (((.(((....))).)))
Assigned Category: Criterion not met
//
Chain: GTGAAAGGAAACTCTCAC ((((.((....)).))))
Assigned Category: Criterion met
//
Chain: GATCAAACAATTGATC ((((((....))))))
Assigned Category: Criterion met
//
Chain: GCCTGAGGAAACCCAGGC (((((.(....).)))))
Assigned Category: Criterion not met
//
Chain: GTTCATGGAAACATGGAC ((.((((....)))).))
Assigned Category: Criterion met
//
Chain: GCTGGCGAAAGCCTAGC ((((((....))).)))
Assigned Category: Criterion met
//
Chain: GATCTTACCTAAGATC ((((((....))))))
Assigned Category: Criterion not met
//
Chain: CTACTGAAAAGTAG (((((....)))))
Assigned Category: Criterion met
//
Chain: AACTCGAAAGAGTT (((((....)))))
Assigned Category: Criterion met
//
Chain: GATCCATGGTGGATC ((((((...))))))
Assigned Category: Criterion not met
//
Chain: GTGAGCGAAAGCTGACAC ((((((....)))..)))
Assigned Category: Criterion met
//
Chain: GATGCACCGAAAGGTATC (((..(((....))))))
Assigned Category: Criterion met
//
Chain: CTTCCGAAAGGAAG (((((....)))))
Assigned Category: Criterion met
//
Chain: GTCGACGGAAACGTTGAC (((.(((....))).)))
Assigned Category: Criterion not met
//
Chain: CGGCCGGAAACGGTTCCG ((((((....)))..)))
Assigned Category: Criterion met
//
Chain: GGGTAGCGAAAGCTGCCC (((.(((....))).)))
Assigned Category: Criterion not met
//
Chain: CTTGAGAAATCAAG (((((....)))))
Assigned Category: Criterion met
//
Chain: GTCCTGGGAAACTGGGAC ((((..(....)..))))
Assigned Category: Criterion met
//
Chain: GGAGTAGCGAAAGCTTCC (((..(((....))))))
Assigned Category: Criterion met
//
Chain: GGCGGTCGAAAGACAGCC (((.(((....))).)))
Assigned Category: Criterion not met
//
Chain: GAACCCGAAAGGGAATTC ((((((....)))..)))
Assigned Category: Criterion met
//
Chain: GATCGGAAGCCCGATC ((((((....))))))
Assigned Category: Criterion not met
//
Chain: GGGGAGAAATCCCC (((((....)))))
Assigned Category: Criterion met
//
Chain: GAACCCGAAAGGGCCTTC ((((((....)))..)))
Assigned Category: Criterion met
//
Chain: TCTCAGAAATGAGA (((((....)))))
Assigned Category: Criterion met
//
Chain: GTCTCCACGAAAGTGGAC (((..(((....))))))
Assigned Category: Criterion met
//
Chain: GAGGCGCGAAAGCGCTC (((.(((....))))))
Assigned Category: Criterion met
//
Chain: GATCAATGAATTGATC ((((((....))))))
Assigned Category: Criterion not met
//
Chain: GATCATTACGATGATC ((((((....))))))
Assigned Category: Criterion not met
//
Chain: GCACATACGAAAGTATGC (((..(((....))))))
Assigned Category: Criterion met
//
Chain: GATATGGGAAACCATATC (((((((....)))))))
Assigned Category: Criterion not met
//
Chain: GTTCTCTCGAAAGAGAAC (((..(((....))))))
Assigned Category: Criterion not met

###

experiment: melting temperature; fluorescence melt of hairpins on a sequencing array, two-state fit, raised by 9.35 °C to match UV melts; details: sodium 0.088 M
Here the recorded Tm is given for each entry.

Chain: CGGAACGGAAACGTCCCG (((.(((....))).)))
Tm, °C: 47.1
//
Chain: GGGAACCGAAAGGTACCC (((.(((....))).)))
Tm, °C: 58.6
//
Chain: GATCGAGACTTCGATC ((((((....))))))
Tm, °C: 57.2
//
Chain: GCACCCGGAAACGGACGC ((..(((....)))..))
Tm, °C: 38.7
//
Chain: GATCATTCAATGATC ((((((...))))))
Tm, °C: 47.1
//
Chain: GATCTACCTTAGATC ((((((...))))))
Tm, °C: 39.1
//
Chain: GCTATAGGAAACTATGGC ((.((((....)))).))
Tm, °C: 41.7
//
Chain: GGATACCGAAAGGTTCC (((.(((....))))))
Tm, °C: 49.3
//
Chain: GATCGGCGCCCGATC ((((((...))))))
Tm, °C: 56.8
//
Chain: GCGCGCGAAAGCGTTCGC ((((((....)))..)))
Tm, °C: 53.3
//
Chain: GTACGTCGAAAGACTAC (((.(((....))))))
Tm, °C: 41
//
Chain: GTTCTAGGAAACTAGAGC (.(((((....))))).)
Tm, °C: 35.6
//
Chain: GGTAGAGGAAACTTTACC ((((.((....)).))))
Tm, °C: 34
//
Chain: GTTTTGGGAAACCAGAAC (((.(((....))).)))
Tm, °C: 38.1
//
Chain: GAGTTACGAAAGTAGCTC (((.(((....))).)))
Tm, °C: 51.2
//
Chain: GCATGCGGAAACGCACAC (..((((....))))..)
Tm, °C: 27.7
//
Chain: GCGGTTGACCGC ((((....))))
Tm, °C: 63.9
//
Chain: GATCTTGTGCAAGATC ((((((....))))))
Tm, °C: 46.4
//
Chain: GGATCCTCGAAAGAGTCC (((..(((....))))))
Tm, °C: 23.6
//
Chain: GCATGGGGAAACCCACAC (..((((....))))..)
Tm, °C: 29
//
Chain: GTTTGTGGAAACACGAAC (((.(((....))).)))
Tm, °C: 49
//
Chain: GGCATCTCGAAAGAGGCC (((..(((....))))))
Tm, °C: 51.2
//
Chain: GTGTTCGAAAGAACCCAC ((((((....)))..)))
Tm, °C: 33.1
//
Chain: GTACCGGAAACGGTAC ((((((....))))))
Tm, °C: 64.7
//
Chain: GATTCCGGAAACGGAGTC ((.((((....)))).))
Tm, °C: 47.6
